Reference source for all entries: the supplement of paper PMC6757056

B1: library; a variant is named by its letters at N, in order (parent)
chain: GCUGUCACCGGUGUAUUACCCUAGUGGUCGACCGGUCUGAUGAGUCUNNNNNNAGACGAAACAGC

Variants of: B1
method_notes: FACS-Seq fitted mean relative fluorescence mCherry/BFP without ligand (log10 relative fluorescence); ligand: hypoxanthine (xanthine aptamer); higher = higher reporter protein expression
particulars: HEK293T, ligand present: no
readout_label: FACS-Seq fitted mean (log10)
API note: the answer field is a bare number with no unit suffix.

> print(dat)
                             chain.sequence  numeric.result
1  GCUGUCACCGGUGUAUUACCCUAGUGGUCGACCGGUCUGAUGAGUCUUACCGAAGACGAAACAGC [UACCGA]           0.439
2  GCUGUCACCGGUGUAUUACCCUAGUGGUCGACCGGUCUGAUGAGUCUGAAGAAAGACGAAACAGC [GAAGAA]           0.421
3  GCUGUCACCGGUGUAUUACCCUAGUGGUCGACCGGUCUGAUGAGUCUAAACAUAGACGAAACAGC [AAACAU]           0.519
4  GCUGUCACCGGUGUAUUACCCUAGUGGUCGACCGGUCUGAUGAGUCUCCGACGAGACGAAACAGC [CCGACG]           0.527
5  GCUGUCACCGGUGUAUUACCCUAGUGGUCGACCGGUCUGAUGAGUCUCAGUAUAGACGAAACAGC [CAGUAU]           0.355

I would be grateful if you could share the reported FACS-Seq fitted mean (log10) for GCUGUCACCGGUGUAUUACCCUAGUGGUCGACCGGUCUGAUGAGUCUCUAGGGAGACGAAACAGC [CUAGGG] .
0.0497

Could you tell me which FACS-Seq fitted mean (log10) is on file for GCUGUCACCGGUGUAUUACCCUAGUGGUCGACCGGUCUGAUGAGUCUAAUCCGAGACGAAACAGC [AAUCCG] ?
0.134

I'd like to know its FACS-Seq fitted mean (log10). The variant in question is GCUGUCACCGGUGUAUUACCCUAGUGGUCGACCGGUCUGAUGAGUCUGACCAAAGACGAAACAGC [GACCAA]
0.126
